# System: kochia (Kochia scoparia)
# measurement description: Test A postemergence, kochia
# Format: in vivo
# details: Bassia scoparia, post-emergence, 240 h, 31 g ai/ha, 0 to 100 scale (0 no effect, 100 complete control), read-out: Plant response rating, Kochia
Assignment: determine reported pest or weed control at 31 g/ha for the given compounds.
One number for each entry, in %.

// below: answered compounds
compound	pest or weed control at 31 g/ha (%)
O=C1CCC(CCCC(F)(F)F)c2c(Oc3ncc(Cl)cn3)cccc21 (stereo not drawn) [Compound 30]	10
O=C1OC(CCCCC(F)(F)F)Cc2c(Oc3ncc(Cl)cn3)cccc21 (stereo not drawn) [Compound 31]	10

Attention now shifts to the item below.
Query OC1CC(CCCC(F)(F)F)c2c(Oc3ncc(Cl)cn3)cccc21 (stereo not drawn) [Compound 10] yields pest or weed control at 31 g/ha of 10

----------
# Test system: wheat (Triticum aestivum)
# measurement description: Test A postemergence, wheat
# Type: in vivo
# details: Triticum aestivum, post-emergence, 240 h, 125 g ai/ha, 0 to 100 scale (0 no effect, 100 complete control), read-out: Plant response rating, Wheat
assay metric: plant injury at 125 g/ha (%)
One number for each entry, in %.

// below: answered molecules
molecule	plant injury at 125 g/ha / %
O=C1Cc2cccc(Oc3ncc(Cl)cn3)c2C(CCC(F)(F)F)O1 (stereo not shown)	0
OC1CC(CCCC(F)(F)F)c2c(Oc3ncc(Cl)cn3)cccc21 (stereo not shown)	10
O=C1OC(CCC(F)(F)F)c2c(Oc3ncc(Cl)cn3)cccc21 (stereo not shown)	80
OC1(CCC(F)(F)F)CCc2cccc(Oc3ncc(Cl)cn3)c21 (stereo not shown)	30
O=C1CC(CCC(F)(F)F)c2c(Oc3ncc(Cl)cn3)cccc21 (stereo not shown)	10

// each molecule listed below needs its plant injury at 125 g/ha
1. FC(F)(F)CCCC1CCc2cccc(Oc3ncc(Cl)cn3)c21 (stereo not shown)
2. O=C1c2cccc(Oc3ncc(Cl)cn3)c2C1CCCC(F)(F)F (stereo not shown)
3. O=C1O[C@@H](CCC(F)(F)F)c2c(Oc3ncc(Cl)cn3)cccc21
4. O=C1COC(CCCC(F)(F)F)c2c(Oc3ncc(Cl)cn3)cccc21 (stereo not shown)

**Result**
1. 20
2. 0
3. 0
4. 0

Assay wheat (Triticum aestivum), sample `O=C1O[C@H](CCCC(F)(F)F)c2c(Oc3ncc(Cl)cn3)cccc21` , plant injury at 125 g/ha read: 90

----------
# System: pigweed (Amaranthus retroflexus)
# measurement description: Test A preemergence, pigweed
# Format: in vivo
# details: Amaranthus retroflexus, pre-emergence, 240 h, 31 g ai/ha, 0 to 100 scale (0 no effect, 100 complete control), read-out: Plant response rating, Pigweed
assay metric: pest or weed control at 31 g/ha (%)
Give bare numbers, in %.

compound	assay metric	value observed
O=C1O[C@@H](CCC(F)(F)F)c2c(Oc3ncc(Cl)cn3)cccc21 [Compound 18]	pest or weed control at 31 g/ha	0
O=C1O[C@H](CCC(F)(F)F)c2c(Oc3ncc(Cl)cn3)cccc21 [Compound 19]	pest or weed control at 31 g/ha	100
O=C1OCc2cccc(Oc3ncc(Cl)cn3)c2C1CCCC(F)(F)F (stereo not shown) [Compound 26]	pest or weed control at 31 g/ha	20

// each compound listed below needs its pest or weed control at 31 g/ha
1. O=C1O[C@H](CCCC(F)(F)F)c2c(Oc3ncc(Cl)cn3)cccc21 [Compound 3]
2. O=C1OC(CCCCC(F)(F)F)Cc2c(Oc3ncc(Cl)cn3)cccc21 (stereo not shown) [Compound 31]
3. O=C1c2cccc(Oc3ncc(Cl)cn3)c2C1CCCC(F)(F)F (stereo not shown) [Compound 22]
4. FC(F)(F)CCC1COc2cccc(Oc3ncc(Cl)cn3)c21 (stereo not shown) [Compound 36]

**Result**
1. 100
2. 0
3. 0
4. 0

Values from patent US11427549B2
